Tested on: SNU-175 (Colorectal Carcinoma);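 note: after 72 h of two-drug dosing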
Assay: Bliss excess, mean over the matrix (fraction); higher = more synergy
measuredAttribute: Bliss excess
Field format: numeric only.

>>> experimentalresult("Cc1c2c(nn1C)CSCc1cc(n(C)n1)CSc1cc(c3ccccc3c1)OCCCc1c(C(=O)O)n(C)c3c-2c(Cl)ccc13 [AZD5991] + CCN(CCO)CCCOc1ccc2c(Nc3cc(CC(=O)Nc4cccc(F)c4)[nH]n3)ncnc2c1 [AZD2811] (first compound max 1 µM, 7x7, partner max 1 µM)")
-0.0794
>>> experimentalresult("CCN(CCO)CCCOc1ccc2c(Nc3cc(CC(=O)Nc4cccc(F)c4)[nH]n3)ncnc2c1 [AZD2811] + O=C(c1cc(Cc2n[nH]c(=O)c3ccccc23)ccc1F)N1CCN(C(=O)C2CC2)CC1 [Olaparib] (first compound max 1 µM, 7x7, partner max 10 µM)")
-0.0141
>>> experimentalresult("CCc1c2c(nc3ccc(O)cc13)-c1cc3c(c(=O)n1C2)COC(=O)[C@]3(O)CC [SN-38] + O=C(c1cc(Cc2n[nH]c(=O)c3ccccc23)ccc1F)N1CCN(C(=O)C2CC2)CC1 [Olaparib] (first compound max 0.3 µM, 7x7, partner max 10 µM)")
0.0238

Then there is this molecule:
I'd like to know its Bliss excess. The molecule in question is NC1(C(=O)N[C@@H](CCO)c2ccc(Cl)cc2)CCN(c2ncnc3[nH]ccc23)CC1 [Capivasertib] + CCN(CCO)CCCOc1ccc2c(Nc3cc(CC(=O)Nc4cccc(F)c4)[nH]n3)ncnc2c1 [AZD2811] (first compound max 10 µM, 7x7, partner max 1 µM)
0.0058
